Reference for the values: patent US20190085043A1

- measurement target: human GLP-1 receptor (Homo sapiens, UniProt P43220)
- Construct: expressed in transfected cells
- Sequence (P43220 24-463): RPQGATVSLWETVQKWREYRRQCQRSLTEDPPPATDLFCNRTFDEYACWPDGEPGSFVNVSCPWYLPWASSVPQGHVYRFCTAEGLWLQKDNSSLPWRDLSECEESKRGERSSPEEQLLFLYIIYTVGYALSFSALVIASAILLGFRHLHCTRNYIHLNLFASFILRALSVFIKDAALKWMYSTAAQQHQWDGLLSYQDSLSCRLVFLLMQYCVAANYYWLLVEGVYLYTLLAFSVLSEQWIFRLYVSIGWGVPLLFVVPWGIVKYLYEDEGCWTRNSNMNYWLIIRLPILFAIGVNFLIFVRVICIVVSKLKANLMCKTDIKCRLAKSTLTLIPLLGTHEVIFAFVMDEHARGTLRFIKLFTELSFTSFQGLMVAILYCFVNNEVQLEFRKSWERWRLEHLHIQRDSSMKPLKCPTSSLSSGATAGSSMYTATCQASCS
- measurement notes: In vitro cellular assay for human GLP-1 receptor efficacy (cAMP HTRF, HEK-293)
- Format: cell-based
- conditions: HEK-293 cells stably expressing human GLP-1 receptor, read-out: hGLP-1R cAMP EC50
assay endpoint: EC50 (pM)
Give the value, in units of pM, as a plain number.

- substance: "Exenatide-APSPAS-FGF21: fusion protein, linker based on PAS sequence"
  measurement target: "human GLP-1 receptor (Homo sapiens, UniProt P43220)"
  measured: 3

Could you now consider this next substance?
Asked: What measured EC50 is associated with Exenatide-APSCPAS-FGF21: fusion protein, linker based on PAS sequence plus Cystein for potential modification on human GLP-1 receptor (Homo sapiens, UniProt P43220)?
Given back: 13.2

====

- measurement target: human FGFR1c plus KLB (Homo sapiens, UniProt P11362+Q86Z14)
- Sequence (P11362 22-822): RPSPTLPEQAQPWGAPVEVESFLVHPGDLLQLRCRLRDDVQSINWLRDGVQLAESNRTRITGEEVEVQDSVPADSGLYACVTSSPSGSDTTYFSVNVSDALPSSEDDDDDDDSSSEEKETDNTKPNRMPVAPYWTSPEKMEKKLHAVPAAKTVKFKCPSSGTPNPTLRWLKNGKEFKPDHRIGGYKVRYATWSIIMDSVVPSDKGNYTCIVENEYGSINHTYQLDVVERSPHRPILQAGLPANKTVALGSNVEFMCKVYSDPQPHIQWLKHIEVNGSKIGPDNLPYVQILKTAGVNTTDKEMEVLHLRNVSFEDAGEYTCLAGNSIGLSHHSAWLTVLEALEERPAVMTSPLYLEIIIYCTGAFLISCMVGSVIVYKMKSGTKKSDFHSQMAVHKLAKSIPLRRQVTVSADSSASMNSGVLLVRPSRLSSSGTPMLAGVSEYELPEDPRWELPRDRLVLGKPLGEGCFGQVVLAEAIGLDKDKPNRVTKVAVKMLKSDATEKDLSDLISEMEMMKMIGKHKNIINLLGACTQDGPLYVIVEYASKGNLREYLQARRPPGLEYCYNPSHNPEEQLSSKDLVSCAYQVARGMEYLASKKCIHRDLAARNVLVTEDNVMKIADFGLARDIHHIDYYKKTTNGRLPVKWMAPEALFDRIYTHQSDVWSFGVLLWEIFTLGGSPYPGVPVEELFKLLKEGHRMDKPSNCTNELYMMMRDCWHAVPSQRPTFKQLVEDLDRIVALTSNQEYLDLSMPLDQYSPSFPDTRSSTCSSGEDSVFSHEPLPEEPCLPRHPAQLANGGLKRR
- Sequence (Q86Z14 whole entry): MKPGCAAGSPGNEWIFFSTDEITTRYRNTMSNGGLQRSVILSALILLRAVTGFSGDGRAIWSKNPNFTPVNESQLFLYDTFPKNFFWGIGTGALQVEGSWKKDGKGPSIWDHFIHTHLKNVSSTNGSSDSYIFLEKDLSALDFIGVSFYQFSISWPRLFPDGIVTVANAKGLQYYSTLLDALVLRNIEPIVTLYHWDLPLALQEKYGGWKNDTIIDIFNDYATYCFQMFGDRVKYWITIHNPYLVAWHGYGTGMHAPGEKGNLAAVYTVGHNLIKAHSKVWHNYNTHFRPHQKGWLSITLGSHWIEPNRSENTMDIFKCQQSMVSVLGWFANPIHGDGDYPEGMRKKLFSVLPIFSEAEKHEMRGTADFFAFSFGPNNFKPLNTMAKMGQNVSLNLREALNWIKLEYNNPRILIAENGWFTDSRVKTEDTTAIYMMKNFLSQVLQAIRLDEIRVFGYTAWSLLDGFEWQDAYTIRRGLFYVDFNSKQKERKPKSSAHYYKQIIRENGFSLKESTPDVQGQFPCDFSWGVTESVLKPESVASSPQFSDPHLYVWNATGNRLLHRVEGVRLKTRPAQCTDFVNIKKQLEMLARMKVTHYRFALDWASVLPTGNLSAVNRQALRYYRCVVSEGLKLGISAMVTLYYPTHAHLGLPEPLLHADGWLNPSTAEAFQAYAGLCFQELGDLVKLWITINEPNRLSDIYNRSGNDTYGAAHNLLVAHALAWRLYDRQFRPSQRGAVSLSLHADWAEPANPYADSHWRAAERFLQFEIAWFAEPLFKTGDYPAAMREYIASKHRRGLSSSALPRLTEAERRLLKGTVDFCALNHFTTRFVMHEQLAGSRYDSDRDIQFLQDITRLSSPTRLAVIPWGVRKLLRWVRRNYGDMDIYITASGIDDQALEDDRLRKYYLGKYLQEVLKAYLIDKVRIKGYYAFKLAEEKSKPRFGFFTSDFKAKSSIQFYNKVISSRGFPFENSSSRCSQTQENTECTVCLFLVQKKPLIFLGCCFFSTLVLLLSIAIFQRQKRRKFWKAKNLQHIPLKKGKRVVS
- measurement notes: FGF-21 receptor autophosphorylation In-Cell Western (pFGFR ICW) in CHO cells
- Format: cell-based
- conditions: CHO cells overexpressing human FGFR1c plus KLB, FGFR autophosphorylation
Each entry below carries its recorded EC50.
Give the value, in units of nM, as a plain number.

- substance: "Exenatide-APSPAS-FGF21: fusion protein, linker based on PAS sequence"
  result units: "nM"
  measured: 4.1

Could you now consider this next substance?
Asked: Which measured EC50 value corresponds to Exenatide-APSCPAS-FGF21: fusion protein, linker based on PAS sequence plus Cystein for potential modification ?
Given back: 193
